Assay remarks: Microsomal stability in human liver microsomes assessed as parent compound remaining measured after 30 mins
Format: ADME, Microsome
Experimental conditions: read-out: Stability
Reported endpoint: remaining at 0.5 h

Look up remaining at 0.5 h: COCC(C)Nc1ccc(NS(=O)(=O)N(C)C)c(Nc2ccc3[nH]nnc3c2)n1 (stereo unspecified)
32.9%

----------
Study target: Bromodomain-containing protein 4 (Homo sapiens)
Assay remarks: Inhibition of N-terminal GST-tagged/C-terminal 6His-tagged BRD4 BD1 (47 to 170 residues) (unknown origin) expressed in Escherichia coli BL21 (DE3) using SGRGK(Ac)GGK(Ac)GLGK(Ac) GGAK(Ac)RHRK-biotinylated peptide as substrate incubated for 60 mins by alpha screen assay
Reported endpoint: pIC50
# reply with the number alone; pIC50 is -log10 of concentration in mol/L

1) CN(C)S(=O)(=O)Nc1ccc(N2CCOCC2)nc1Nc1ccc2[nH]nnc2c1 | 5.34

Look up pIC50: `CC(C)Nc1ccc(NS(=O)(=O)c2cccnc2)c(Nc2ccc3[nH]nnc3c2)n1`
6.08

Quick one: `CN(C)S(=O)(=O)Nc1ccc(NC2COC2)nc1Nc1ccc2[nH]nnc2c1`
5.16

Quick one: `CCS(=O)(=O)Nc1ccc(NC(C)C)nc1Nc1ccc2[nH]nnc2c1`
5.41

----------
Each entry below lists one item and its recorded pIC50 value.
Study target: Bromodomain-containing protein 4 (Homo sapiens, UniProt O60885)
Assay remarks: Inhibition of N-terminal GST-tagged/C-terminal 6His-tagged BRD4 BD1 (47 to 170 residues) (unknown origin) expressed in Escherichia coli BL21 (DE3) using SGRGK(Ac)GGK(Ac)GLGK(Ac) GGAK(Ac)RHRK-biotinylated peptide as substrate incubated for 60 mins by alpha screen assay
# reply with the number alone; pIC50 is -log10 of concentration in mol/L

Completed entries (count: 4):
1. COCC(C)Nc1ccc(NS(=O)(=O)N(C)C)c(Nc2ccc3[nH]nnc3c2)n1 (stereo not drawn) | 5.54
2. CC(C)Nc1ccc(NS(=O)(=O)N(C)C)c(Nc2ccc3[nH]nnc3c2)n1 | 5.77
3. CN(C)S(=O)(=O)Nc1ccc(NCc2ccc(F)cc2F)nc1Nc1ccc2[nH]nnc2c1 | 5.12
4. CC(C)Nc1ccc([N+](=O)[O-])c(Nc2ccc3c(c2)nnn3C(=O)c2ccccc2)n1 | 5.37

Look up pIC50: `CN(C)S(=O)(=O)Nc1ccc(N2C3CCC2COC3)nc1Nc1ccc2[nH]nnc2c1`
5.35

Quick one: `CC(C)Nc1ccc([N+](=O)[O-])c(Nc2ccc3c(c2)nnn3C)n1`
5.37

Quick one: `CN(C)S(=O)(=O)Nc1ccc(N2CCS(=O)(=O)CC2)nc1Nc1ccc2[nH]nnc2c1`
4.70

Quick one: `CC(C)Nc1ccc(NS(=O)(=O)c2ccc(F)cc2)c(Nc2ccc3[nH]nnc3c2)n1`
6.62

----------
Study target: Bromodomain-containing protein 4 (Homo sapiens)
Assay remarks: Inhibition of BRD4 BD2 (unknown origin) using SGRGK(Ac)GGK(Ac)GLGK(Ac) GGAK(Ac)RHRK-biotinylated peptide as substrate incubated for 60 mins by alpha screen assay
Each entry below lists one item and its recorded IC50 value.
Just the number please, in µM, no unit attached.

Completed entries (count: 6):
1) CN(C)S(=O)(=O)Nc1ccc(NCCCN2CCOCC2)nc1Nc1ccc2[nH]nnc2c1 | 15
2) CC(C)Nc1ccc([N+](=O)[O-])c(Nc2ccc3c(c2)nnn3S(=O)(=O)c2ccc(F)cc2)n1 | 6.17
3) CN(C)S(=O)(=O)Nc1ccc(N2CCS(=O)(=O)CC2)nc1Nc1ccc2[nH]nnc2c1 | 10.4
4) CC(C)Nc1ccc(NS(=O)(=O)c2ccccc2F)c(Nc2ccc3[nH]nnc3c2)n1 | 1.66
5) CN(C)S(=O)(=O)Nc1ccc(N2CCOCC2)nc1Nc1ccc2[nH]nnc2c1 | 5.82
6) CC(C)Nc1ccc([N+](=O)[O-])c(Nc2ccc3[nH]nnc3c2)n1 | 10

Look up IC50: `CC(C)Nc1ccc(NS(=O)(=O)C2CCCCC2)c(Nc2ccc3[nH]nnc3c2)n1`
0.9

Quick one: `CC(C)Nc1ccc(NS(=O)(=O)c2ccccc2)c(Nc2ccc3[nH]nnc3c2)n1`
0.64

Quick one: `C[C@H](Nc1ccc(NS(=O)(=O)N(C)C)c(Nc2ccc3[nH]nnc3c2)n1)[C@@H](c1ccccc1)N(C)C`
6.9

Quick one: `CC(C)Nc1ccc([N+](=O)[O-])c(Nc2ccc3c(c2)nnn3C(=O)Nc2ccccc2)n1`
5.84

Quick one: `CC(C)Nc1ccc(NS(=O)(=O)c2c(F)cc(F)cc2F)c(Nc2ccc3[nH]nnc3c2)n1`
0.9

Quick one: `CC(C)Nc1ccc(NS(=O)(=O)c2c(F)cccc2F)c(Nc2ccc3[nH]nnc3c2)n1`
1.04
